Attribution: the nanobody polyreactivity screen of Harvey et al. (2022)

test: yeast display, Sf9 membrane polyspecificity reagent, FACS + sequencing; frameworks hold sequencing errors
endpoint label: polyreactivity (PSR sort gate)

# monomer sequence, endpoint label, reported
measured = [
    ("QVQLVESGGGLVQAGGSLRLSCAASGINFYAYAMGWYRKAPGKERELVAAITFSAVSTYYADSVKGRFTISRDNAKNSVYLQMNSLKPEDTAVYYCAAEAYKQGVWDYDYWGQGTQVTVSS", "polyreactivity (PSR sort gate)", "low polyreactivity"),
    ("QVQLVESGGGLVQAGGSLRLSCAASGFIFDEYTMGWYRQAPGKERELVAAITSSGGTDYADSVKGRFTISRDNAKNTVYLQMNSLKPEDTAVYYCNTEDYYRDYDYWGQGTQVTVSS", "polyreactivity (PSR sort gate)", "low polyreactivity"),
]

----------
test: yeast display, Sf9 membrane polyspecificity reagent, FACS + sequencing; frameworks hold sequencing errors

# monomer sequence, polyreactivity (PSR sort gate)
rows = [
    ("QVQLVESGGGVVQAGGSIRLSGAASGRIFGEYAMGWYRPAPAKERELGAAISGGGSTYYADSVKGRFTISRDNAKNTVYLQMNSLKPEDTAVYYCAVYSVYHEYDYGGQGTQVTVSS", "low polyreactivity"),
    ("QVQLVESGGGLVQAGGSLRLSCAASGYTFRYYAMGWYRQAPGKERELVAAITWSGGSTYYADSVKGRFTISRDNAKNTVYLQMNSLKPEDTAVYYCATDSARVGNFPDPQFDYWGQGTQVTVSS", "low polyreactivity"),
    ("QVQLVESGGGLVQAGGSLRISCAASGSTFYLYDMGWYRQAPGKERELVANITSGTSTTYADSVKVRFTISRDNAKNTVYLQMNSLKPEDTAVYYCNATYTSPEYDYWGQGTQVTVSS", "low polyreactivity"),
]

----------
experiment: yeast display, Sf9 membrane polyspecificity reagent, FACS + sequencing; frameworks hold sequencing errors

# monomer sequence, polyreactivity (PSR sort gate)
measured = [
    ("QVQLVESGGGLVQAGGSLRLSCAASGITFYRYAMGWYRQAPGKERELVAAISRSGGSTYYADSVKGRFTISRDNAKNTVYLQMNSLKPEDTAVDYCAAYILGNRDGYDYWGQGTQVTVSS", "high polyreactivity"),
    ("QVQLVESGGGLVQAGGSLRLNCAASGSTFGRNAKGWYRQAPGKERELVAAISLSTGSTYDADSVKGRFTISRDNAKNTVYLQMNSLKPEDTAVYYCAKEWGHPYHFLYYYWGQGTQVTVSS", "high polyreactivity"),
    ("QVQHVESGGGLVHAGGSLRLSCAASGRIFGGYAMGWYRQPPGKDREFVATISRSGSSTYYADSVKGRFTISRDNAKNTVYLQMNSLKPEDTAVYYCAAVIRRPNQWYWWTNSDYWGQGTQVTVSS", "high polyreactivity"),
    ("QVQLVESGGGLVQAGGSLRLSCAASGSTFDYNAMGWYRQAPGKERELVAAISRGGNTYYADSVKGRFTISRDNAKNTVYLQMNSLKPEDTAVYYCAKDSYGSYRFVRKRQKAYGYWGQGTQVTVSS", "low polyreactivity"),
    ("QVQLVESGGGLVQAGGSLRLSCAASGITFYVYAMGWYRQAPGKERELVAAINYDSGSTYYADSVKGRFTISRDNAKNTVYLQMNSLKPEDTAVYYCATDGVNPFYAYDFWGQGTQVTVSS", "low polyreactivity"),
    ("QVQLVESGGGLVQAGGSLRLSCGASGSTFIYYVMGWYRQAPGKEREWVASISTGGRTYYADSVKGRFTSSRDNANHPVYVQMHSLKPEETAVDSCAGAIRSFRRPALYYWGQGTQVTVSS", "high polyreactivity"),
    ("QVQLVESGGGLVQAGGSLRLSCAASGFTFRYYVMGWYRQAPGTERELVAAISWTGGSTYYADSVKGRFTISRDNAKNTVYLQMTSLKPEDTAVYYCNAASLSKSDYWGQGTQVTVSS", "high polyreactivity"),
    ("QVQLVESGGGLVQAGGSLRLSCAASGSIFWWNAMGWYRQAPGKERELVASIGDSTYYADSVKGRFTISRDNAKNTVYLQMNSLKPEDTAVYYCYAEVLNYLVFGYQLGYDYWGQGTQVTVSS", "low polyreactivity"),
    ("QVQLVESGGGLVQAGGSLRLSCAASGFIFSGYAMGWYRQAPGKERELVAAISTRGGRTYYADSVKGRFTISRDNAKNTVYLQMNSLKPEDTAVYYCAADSLYPELDYWGQGTQVTVSS", "high polyreactivity"),
    ("QVQLVESGVGLVQAGGSLRLSCAASGSIFFKYAMGWYRQAPGKERELVAGITSTGRTYYADSVKGRFTISRDNAKNTVYLQMNSLKPEDTAVYYCNARTLPTYYRRYDYWGQGTQVTVSS", "high polyreactivity"),
    ("QVHLVESGGGLVQAGGSLRLSCAASGIIFYLYAMGRYRQAPGKERELVAGITSGGDTKYADSVKGRFTISRDNAKNTVYLQMNSLKPEDTAVYYCATDSGSVWQRWGYANYDYWGQGTQVTVSS", "low polyreactivity"),
]
